Data provenance is patent US20210238170A1.

Biological target: human SGLT2 (Homo sapiens, UniProt P31639)
Construct: expressed in transfected cells
Sequence (P31639 1-672): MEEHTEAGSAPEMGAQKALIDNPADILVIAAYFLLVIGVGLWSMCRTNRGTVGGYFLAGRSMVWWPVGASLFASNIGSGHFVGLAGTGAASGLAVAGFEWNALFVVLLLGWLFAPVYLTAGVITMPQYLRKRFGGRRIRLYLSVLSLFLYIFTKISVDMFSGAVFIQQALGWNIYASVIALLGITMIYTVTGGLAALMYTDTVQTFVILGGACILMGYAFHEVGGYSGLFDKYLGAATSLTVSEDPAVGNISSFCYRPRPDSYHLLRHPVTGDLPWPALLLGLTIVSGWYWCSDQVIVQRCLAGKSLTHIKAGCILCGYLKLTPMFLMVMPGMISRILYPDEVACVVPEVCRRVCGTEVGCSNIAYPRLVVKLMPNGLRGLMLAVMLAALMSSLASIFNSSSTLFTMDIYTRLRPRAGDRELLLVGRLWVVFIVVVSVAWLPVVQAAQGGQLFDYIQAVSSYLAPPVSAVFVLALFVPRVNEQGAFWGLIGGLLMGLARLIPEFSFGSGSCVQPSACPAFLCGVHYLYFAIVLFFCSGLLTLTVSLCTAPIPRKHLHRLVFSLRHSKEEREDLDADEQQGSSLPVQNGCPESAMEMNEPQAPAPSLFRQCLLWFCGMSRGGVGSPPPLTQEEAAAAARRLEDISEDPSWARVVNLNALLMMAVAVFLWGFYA
Assay: SGLT2 in vitro assay: Na-dependent 14C-AMG uptake in CHO-K1 cells stably expressing human SGLT2
Assay type: cell-based
Details: @ 0.3 μM; CHO-K1 cells stably expressing human SGLT2; 14C-AMG uptake; read-out: SGLT2 % Inh @ 0.3 μM
property: inhibition at 0.3 µM (%)
Numbers only here, please. The scale is %.

Worked cases, answers included:
Cc1cc(O)c([C@@H]2O[C@H](CO)C(F)(F)[C@H](O)[C@H]2O)cc1Cc1cc2cc(F)ccc2s1: 81.2
Cc1cc(O)c([C@@H]2O[C@H](CO)C(F)(F)[C@H](O)[C@H]2O)cc1Cc1ccc(OC(F)F)cc1: 81.4

Read the next record carefully.
What value of measured inhibition at 0.3 µM is listed for OC[C@H]1O[C@@H](c2cc(Cc3ccc4c(c3)OCCO4)c(Cl)cc2O)[C@H](O)[C@@H](O)C1(F)F ? 82
